System: Cholesterol in the serum
testMethodNotes: Cholesterol-lowering activity on normal rats of Wistar strain (serum cholesterol, liver weight)
Type: in vivo, rats (male Wistar strain)
measurementConditions: continuous administration for 4 days, 0.3% in diet
For each of the compounds below, state its B - Ratio of decrease of liver weight.
Numbers only here, please. The scale is %.

Entry COC(=O)[C@H](Cc1ccccc1)NC(=O)SCc1ccccc1 [Compound 18] : reported B - Ratio of decrease of liver weight = ?
39

Input CCOC(=O)C(C)(C)Oc1ccc(Cl)cc1 [Clofibrate, reference compound]
40.1

Moving on to COC(=O)[C@H](Cc1ccccc1)NC(=O)SCc1ccc([N+](=O)[O-])cc1 [Compound 15]
38.9
